Measured values drawn from BindingDB's records for doi:10.3109/14756366.2011.591290 for this set.

- subject_of_test: Carbonic anhydrase 6 (Homo sapiens, UniProt P23280)
- Sequence (P23280 whole entry): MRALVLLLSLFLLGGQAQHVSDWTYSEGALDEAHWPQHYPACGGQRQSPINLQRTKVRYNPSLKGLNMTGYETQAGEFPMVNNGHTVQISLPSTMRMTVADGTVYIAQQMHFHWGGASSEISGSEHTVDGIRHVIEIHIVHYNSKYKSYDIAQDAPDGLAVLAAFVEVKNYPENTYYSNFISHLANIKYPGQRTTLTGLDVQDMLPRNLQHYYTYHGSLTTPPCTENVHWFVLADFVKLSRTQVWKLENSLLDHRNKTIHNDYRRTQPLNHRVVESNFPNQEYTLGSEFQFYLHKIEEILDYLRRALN
measured_quantity: pKi
In simple prose, pKi is minus the logarithm base ten of a concentration in moles per litre.

Example cases with answers are listed next.
molecule	pKi
NC1CCc2c(ccc(O)c2O)C1 (centres undefined)	6.01
NC1Cc2cc(Br)c(Br)cc2C1	6.11
NC1Cc2ccc(Br)cc2C1 (centres undefined)	6.24

Now look at this one.
Value wanted: pKi (Carbonic anhydrase 6 (Homo sapiens, UniProt P23280)) of entry NC1CCc2cc(O)c(O)cc2C1 (centres undefined) 5.94

###

Target or system Carbonic anhydrase 1 (Homo sapiens); recorded quantity Ki.

Example cases with answers are listed next.
molecule	subject_of_test	Ki
NC1Cc2ccc(Br)cc2C1 (stereo not drawn)	Carbonic anhydrase 1 (Homo sapiens)	161 µM
NC1CCc2cc(O)c(O)cc2C1 (stereo not drawn)	Carbonic anhydrase 1 (Homo sapiens)	41.1 µM

Need Ki of NC1CCc2c(ccc(O)c2O)C1 (stereo not drawn) , thanks. 45.1 µM
